System: SW-620
Assay: NCI tumour cell line growth inhibition, 48 h
Activity calls are given as the source filed them. Cut-off read from the data, not from the text of the source: active = GI50 up to about 1.1 µM and inactive = higher.
Lab note: assign the record to one of active, inactive

>>> assigned_label("c1ccc2c(c1)OCCOCCOc1ccccc1OCCO2")
"inactive"
>>> assigned_label("CCOC(=O)Nc1cc2c(c(N)n1)N=C(c1ccc(Cl)cc1Cl)CN2")
"active"

Please look at the following compound next.
Ask: For COC1/C=C/C(C)C(C(C)C(OC)C(C)CCC(=O)C(C)C(C/C=C/N(C)C=O)OC)OC(=O)/C=C/C=C(\C)CC(OC)C(OC)C2=CC(=O)O[C@@H](C(C)C(OC)CC(OC)/C=C/C(C)C(O)C1)[C@H]2O (stereo partly drawn) , which call appears in the assay record?
Result: active

====

Tested on: SW-620
Experiment: NCI tumour cell line growth inhibition, 48 h
Active and inactive are the calls of the source. Cut-off read from the data, not from the text of the source: active = GI50 up to about 1.1 µM and inactive = higher.
Lab note: assign the record to one of 1 (yes) (active), 0 (no) (inactive)

>>> assigned_label("C[n+]1c2ccccc2c(C(=O)Nc2ccc(S(=O)(=O)N=C(N)N)cc2)c2ccccc21")
"0 (no)"
>>> assigned_label("OCCCCCNc1c2ccccc2nc2ccccc12")
"0 (no)"
>>> assigned_label("CC1CCC2[C@@H](C)COC3O[C@]4(C)CCC1C32OO4 (some centres undefined)")
"0 (no)"

Ask: For Cc1ccc([N+](=O)[O-])cc1S(=O)(=O)Nc1ccc(C2=NN(C(=O)c3ccccc3)C(c3cccs3)C2)cc1 (centres undefined) , which call appears in the assay record?
Result: 0 (no)

Ask: For COc1ccc2c(CC(=O)O)cc(=O)oc2c1 , which call appears in the assay record?
Result: 0 (no)

Ask: For Cc1cc(NC(=O)C(=O)Cc2nc3ccccc3s2)ccc1Cl , which call appears in the assay record?
Result: 0 (no)

====

System: HCT-116
Assay: NCI tumour cell line growth inhibition, 48 h
Calls of active or inactive are those of the source. Cut-off read from the data, not from the text of the source: active = GI50 up to about 1.1 µM and inactive = higher.
Lab note: assign the record to one of yes (1) for active, no (0) for inactive

>>> assigned_label("CCN(CC)C(=O)C/C(C)=N/NC(=O)c1ccncc1")
"no (0)"
>>> assigned_label("C=C(C)C(=O)O[C@@H]1C/C(C)=C\\[C@H](OC(C)=O)C[C@](C)(O)/C=C2/OC(=O)C(COC(C)=O)=C21")
"yes (1)"

Please look at the following molecule next.
Ask: For CCc1nnc(-n2c(C)nc3cc(Cl)ccc3c2=O)s1 , which call appears in the assay record?
Result: no (0)

====

# GI50 per record follows
System: IGROV-1
Assay: NCI tumour cell line growth inhibition, 48 h
Activity calls are given as the source filed them. Cut-off read from the data, not from the text of the source: active = GI50 up to about 1.1 µM and inactive = higher.

Example cases with answers are listed next.
>>> observed_result("Cc1cccc(C)c1NC(=O)CCCC(=O)C(C#N)c1ccccc1 (stereo unspecified)")
"> 100 µM (inactive)"
>>> observed_result("[O-][S+](Cc1cc2c(cc1Br)OCO2)c1ccccc1 (stereo unspecified)")
"39.4 µM (inactive)"
>>> observed_result("CN(C)CCC(C(=O)C(C)(C)C)c1ccccn1 (stereo unspecified)")
"> 100 µM (inactive)"
>>> observed_result("O=P1(Oc2ccc(Cl)cc2Cl)Oc2ccc3ccccc3c2-c2c(ccc3ccccc23)O1")
"26.9 µM (inactive)"
>>> observed_result("O=C1OC(CC(=O)c2ccc(Cl)c(Cl)c2)C(Cl)=C1Cl (stereo unspecified)")
"> 100 µM (inactive)"

Ask: Look up GI50: CCc1cc(CCC(=O)Nc2c(C)cccc2C)n[nH]1
Result: > 100 µM (inactive)

Ask: Look up GI50: CC(=O)OCC1OC(n2c(C)c(C)c(C)c(C#N)c2=S)C(OC(C)=O)C(OC(C)=O)C1OC(C)=O (stereo unspecified)
Result: > 100 µM (inactive)

Ask: Look up GI50: O=C1CCCn2c3ccccc3c3ccnc1c32
Result: 34.2 µM (inactive)

Ask: Look up GI50: O=C(CSc1nc(O)nc2[nH]cnc12)Nc1ccccc1
Result: > 100 µM (inactive)

Ask: Look up GI50: O=C1OCC/C1=C/c1ccc(/N=N/c2c(O)ccc3ccccc23)cc1
Result: 25.8 µM (inactive)

Ask: Look up GI50: c1ccc2c(c1)SCCC2NC1=NCCO1 (stereo unspecified)
Result: > 100 µM (inactive)
